system: SK-OV-3 ovarian; experiment: NCI tumour cell line growth inhibition, 48 h
experimental_readout: TGI

Could you share which TGI value was measured for COc1cc(Cn2c(-c3ccccc3)c(Cl)c3c2-c2oncc2CC3)cc(OC)c1 ? > 100 µM

Which TGI value belongs to COc1ccc2c(c1)C(=O)c1c-2c(N2CCN(C(=O)CNCCNCCO)CC2)nc2ccccc12 ? 28.2 µM

Given the compound Clc1ccc2[nH]cc(-c3nnnn3-c3ccccc3)c2c1 , what is its reported TGI? > 75.3 µM

For the compound Cn1c(=O)n(C2(C)C[Se]C2)c2ccccc21 , what TGI is on record? > 100 µM

Entry CC(C)Oc1ccc2cc(-c3nn(CC4CCNCC4)c4ncnc(N)c34)ccc2c1 : reported TGI = ? 27.9 µM

Please report the recorded TGI for S=C(S)NCNC(=S)S.[Zn+2] . > 100 µM

Reported TGI for C1=CC(N(c2ccccc2)C2C=CCCC2)CCC1 (stereo unspecified) : what is it? > 100 µM

Recorded TGI for CN1C2CCC1CC(=CCOC(c1ccc(F)cc1)c1ccc(F)cc1)C2 , please? 31.3 µM

Reported TGI, compound CN1CCN(C(=S)N2CCN(C)CC2)CC1 : ____ > 100 µM

Fill in: TGI of NC(=O)C(C(N)=O)=C(O)C(=O)/C=C(\O)c1ccccc1 is ___ > 100 µM

Entry CC(=O)c1sc(Nc2nnc(-c3ccc(-c4nnc(Nc5nc(C)c(C(C)=O)s5)o4)cc3)o2)nc1C has what TGI? > 10 µM

###

Task for the reader: assign each of the following molecules its reported TGI.
test system: SNB-19 CNS; assay: NCI tumour cell line growth inhibition, 48 h

I'm curious: which TGI was measured for CC(=O)c1[nH]c(NCc2ccccc2)c(C(=S)Nc2ccccc2)c1N tested on SNB-19 CNS? > 100 µM

Notebook: pull reported TGI for SNB-19 CNS, entry Cc1ncc(C(=O)Nc2ccc(CN3CCN(C)CC3)c(C(F)(F)F)c2)cc1C#Cc1cnc(N)c2ccncc12 4.62 µM

So what TGI did COc1ccc(P2(=S)OC(C)(C)C(C)(C)O2)cc1 get with SNB-19 CNS? > 100 µM

What TGI appears in the records for this molecule with SNB-19 CNS? N#Cc1c2ccccc2cn1-c1ccc(F)cc1 > 100 µM

Requested read-out TGI, target or system SNB-19 CNS, entry CN=C(N=Nc1c(O)[nH]c2ccccc12)SCC(=O)c1ccc(Br)cc1 > 100 µM

Fill in the recorded TGI for this molecule, with SNB-19 CNS as test system: CCOc1ccc(NC(=O)C(=O)CC(=O)c2c(C)n([O-])c3ccccc3[n+]2=O)cc1 > 100 µM

Write down the reported TGI of N#Cc1c(-c2ccc(Cl)cc2Cl)nc2[nH][nH]c(=S)n2c1=O , test system: SNB-19 CNS. > 100 µM

Given the entry Cc1ccc(-n2c(N)c(C#N)c3[nH]nc(N)c3c2=O)cc1 , what TGI was observed with SNB-19 CNS? > 100 µM

Report TGI for CC(=O)Oc1c2c(c(O)c3ccccc13)C(n1cnc3c(ncn3C3OC(CO)C4OC(C)(C)OC43)c1=N)CCC2 (stereo not given) tested on SNB-19 CNS. 30.3 µM

Lab note: need TGI for CN(CC(=O)O)c1ncc2c(n1)CCCC2 on SNB-19 CNS, anyone have it? > 100 µM
